meta.source: paper PMC11520554

STUDY_TARGET: guinea pig Kv7.1/KCNE1 channel (Cavia porcellus)
ASSAY_TEXT: Two-electrode voltage clamp of Kv7.1/KCNE1 expressed in Xenopus laevis oocytes
Type: cell-based
ASSAY_SETUP: best fit, 20 mV; read-out: EC50 for current amplitude (Iamp) at 20 mV
Method: Isolation of Xenopus laevis oocytes was approved by the Linköping Animal Care and Use Committee (Permits #1941 and #14515) and conforms to national and international guidelines. […] The depth of anesthesia was monitored by checking for reflexes when the paws were pinched. […] To quantify the voltage dependence of channel opening, tail currents were measured shortly after stepping to the tail voltage and plotted against the preceding activation voltage. […]
EXPERIMENTAL_READOUT: EC50
Just the number plus its unit, please.

IN: So what does the record say about EC50 for CCCCC/C=C\C/C=C\C/C=C\C/C=C\CCCC(=O)NC(CO)C(=O)O (stereo in doubt) ?
OUT: 3 µM

###

STUDY_TARGET: rabbit Kv7.1/KCNE1 channel (Oryctolagus cuniculus)
Sequence (Q9MYS6 whole entry): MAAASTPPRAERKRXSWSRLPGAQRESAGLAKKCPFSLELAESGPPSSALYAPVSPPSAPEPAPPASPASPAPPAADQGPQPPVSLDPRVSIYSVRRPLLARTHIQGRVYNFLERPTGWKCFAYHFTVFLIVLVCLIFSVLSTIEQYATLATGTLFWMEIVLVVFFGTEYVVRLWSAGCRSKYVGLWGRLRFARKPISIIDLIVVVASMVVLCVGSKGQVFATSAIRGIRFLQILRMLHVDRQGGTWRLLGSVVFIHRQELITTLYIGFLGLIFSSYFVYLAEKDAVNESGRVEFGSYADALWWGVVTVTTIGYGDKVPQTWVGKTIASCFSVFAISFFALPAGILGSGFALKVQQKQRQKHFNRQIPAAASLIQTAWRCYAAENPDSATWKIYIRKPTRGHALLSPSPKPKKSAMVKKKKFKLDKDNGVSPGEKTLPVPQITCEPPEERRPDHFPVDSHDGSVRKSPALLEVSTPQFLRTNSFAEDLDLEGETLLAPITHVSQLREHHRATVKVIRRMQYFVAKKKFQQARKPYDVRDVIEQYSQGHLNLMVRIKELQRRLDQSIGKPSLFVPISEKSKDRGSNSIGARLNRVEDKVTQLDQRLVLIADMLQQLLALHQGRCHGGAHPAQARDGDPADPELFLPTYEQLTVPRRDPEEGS
Sequence (Q28705 whole entry partner): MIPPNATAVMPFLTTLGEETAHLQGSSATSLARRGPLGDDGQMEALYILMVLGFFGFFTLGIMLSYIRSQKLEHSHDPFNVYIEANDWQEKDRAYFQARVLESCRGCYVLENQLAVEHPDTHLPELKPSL
ASSAY_TEXT: Two-electrode voltage clamp of Kv7.1/KCNE1 expressed in Xenopus laevis oocytes
Assay type: cell-based
ASSAY_SETUP: best fit of concentration-response, n = 6-7; read-out: EC50 for the V50 effect
EXPERIMENTAL_READOUT: EC50 (µM)
# unit: µM | format: bare number

IN: So what does the record say about EC50 for CCCCC/C=C\C/C=C\C/C=C\C/C=C\CCCC(=O)NC(CO)C(=O)O (stereo in doubt) ?
OUT: 3.1

###

STUDY_TARGET: guinea pig Kv7.1/KCNE1 channel (Cavia porcellus)
ASSAY_TEXT: Two-electrode voltage clamp of Kv7.1/KCNE1 expressed in Xenopus laevis oocytes
Assay type: cell-based
ASSAY_SETUP: best fit of concentration-response, n = 5-8; read-out: EC50 for the V50 effect
EXPERIMENTAL_READOUT: EC50 (µM)
# unit: µM | format: bare number

IN: So what does the record say about EC50 for CCCCC/C=C\C/C=C\C/C=C\C/C=C\CCCC(=O)NC(CO)C(=O)O (stereo in doubt) ?
OUT: 6.2

###

STUDY_TARGET: rabbit Kv7.1/KCNE1 channel (Oryctolagus cuniculus)
ASSAY_TEXT: Two-electrode voltage clamp of Kv7.1/KCNE1 expressed in Xenopus laevis oocytes
Format: cell-based
ASSAY_SETUP: best fit, 20 mV; read-out: EC50 for current amplitude (Iamp) at 20 mV
EXPERIMENTAL_READOUT: EC50 (µM)
# unit: µM | format: bare number

IN: So what does the record say about EC50 for CCCCC/C=C\C/C=C\C/C=C\C/C=C\CCCC(=O)NC(CO)C(=O)O (stereo in doubt) ?
OUT: 1.2
